System: Human immunodeficiency virus 1
METHOD: Antiviral activity against HIV1 expressing reverse transcriptase K103N/L100I double mutant infected in human MT4 cells assessed as reduction in virus-induced cytopathic effect
Type: functional, organism-based
ASSAY_SETUP: Human immunodeficiency virus 1, MT4
For each of the compounds below, state its IC50.
Write the value in nM as a bare number.

The compound Cc1cc(C#N)cc(C)c1Oc1nc(NC2CCN(Cc3ccc(S(N)(=O)=O)cc3Cl)CC2)ncc1Br showed IC50 equal to 9.1

Data point: Cc1cc(C#N)cc(C)c1Oc1nc(Nc2ccc(C#N)cc2)nc(N)c1Br [ETRAVIRINE] ; IC50 = 9.5

GET /value?item= Cc1cc(C#N)cc(C)c1Oc1nc(NC2CCN(Cc3ccc(S(C)(=O)=O)cc3Cl)CC2)ncc1Br &field=IC50 returns 5.9

* * *

SUBJECT_OF_TEST: Human immunodeficiency virus type 1 reverse transcriptase (Human immunodeficiency virus 1, UniProt Q72547, Y188L)
METHOD: Inhibition of HIV1 reverse transcriptase Y188L mutant by SPA heteropolymeric assay
pIC50: −log10 of the molar value.
Note to self: values exactly at 7 are met. So pIC50 at or above 7 is met, below is not met.

Reported pIC50 reaches at least 7 for Cc1cc(C#N)cc(C)c1Oc1ccnc(NC2CCN(Cc3ccc(S(C)(=O)=O)cc3Cl)CC2)n1 ? not met

Reported pIC50 at or above 7? Cc1cc(C#N)cc(C)c1Oc1nc(NC2CCN(Cc3cccc(C#N)c3)CC2)ncc1Br met

Form field: pIC50 at least 7? Entry: Cc1cc(C#N)cc(C)c1Oc1ccnc(NCCC(=O)Nc2ccc(S(N)(=O)=O)cc2Cl)n1 not met

Please check the record Cc1cc(C#N)cc(C)c1Oc1nc(NC2CCN(Cc3ccccc3C#N)CC2)ncc1Br and state if its pIC50 is at or above 7. met

Hi, just wondering whether Cc1cc(C#N)cc(C)c1Oc1nc(NC2CCN(Cc3ccc(S(N)(=O)=O)cc3Cl)CC2)ncc1Br shows pIC50 of 7 or higher. not met

Does the molecule Cc1cc(C#N)cc(C)c1Oc1nc(NC2CCN(c3ccccc3)C2)ncc1Br (configuration not stated) have recorded pIC50 that is 7 or more? not met

Could you please find out whether Cc1cc(C#N)cc(C)c1Oc1nc(NC2CCN(Cc3ccc(S(C)(=O)=O)cc3Cl)CC2)ncc1Br has pIC50 that meets 7 or exceeds it? not met

Has Cc1cc(C#N)cc(C)c1Oc1nc(NC2CCN(Cc3ccc(C(N)=O)cc3Cl)CC2)ncc1Br a recorded pIC50 greater than or equal to 7? not met

Hi, just wondering whether Cc1cc(C#N)cc(C)c1Oc1ccnc(NC2CCN(Cc3ccccc3)CC2)n1 shows pIC50 of 7 or higher. not met

Hello, I need to know if Cc1cc(C#N)cc(C)c1Oc1nc(NC2CCN(Cc3ccc(C#N)cc3)CC2)ncc1Br has measured pIC50 not below 7. Thanks! met

Is pIC50 for Cc1cc(C#N)cc(C)c1Oc1nc(NC2CCN(Cc3ccc(S(C)(=O)=O)cc3)CC2)ncc1Br at or above 7? met

# check: pIC50 of Cc1cc(C#N)cc(C)c1Oc1nc(NC2CCN(Cc3ccc(Cl)cc3)CC2)ncc1Br is greater than or equal to 7 not met

Evaluate Cc1cc(C#N)cc(C)c1Oc1nc(NC2CCN(c3ccccc3)CC2)ncc1Br : pIC50 at minimum 7? not met

* * *

Give pIC50 for every item shown.
SUBJECT_OF_TEST: Human immunodeficiency virus type 1 reverse transcriptase (Human immunodeficiency virus 1, UniProt Q72547)
Note: pIC50 values are expressed as the negative base-10 logarithm of concentration in M.

The reported value for Cc1cc(C#N)cc(C)c1Oc1nc(NC2CCN(Cc3ccc(Cl)cc3)CC2)ncc1Br in terms of pIC50 is 6.82

In plain terms, Cc1cc(C#N)cc(C)c1Oc1ccnc(NC2CCN(Cc3ccccc3)CC2)n1 has a documented pIC50 of 7.06

Consider Cc1cc(C#N)cc(C)c1Oc1nc(NC2CCN(Cc3ccc(C#N)cc3)CC2)ncc1Br . Its measured pIC50 is 7.68

pIC50 in this record for Cc1cc(C#N)cc(C)c1Oc1nc(NC2CCN(Cc3ccc(C(N)=O)cc3Cl)CC2)ncc1Br : 6.88

// field: pIC50; key: Cc1cc(C#N)cc(C)c1Oc1nc(NC2CCN(Cc3ccc(C(=O)O)cc3Cl)CC2)ncc1Br ; value = 7.49

// recorded pIC50 for Cc1cc(C#N)cc(C)c1Oc1nc(NC2CCN(c3ccccc3)C2)ncc1Br (centres undefined) : 7.17

Measured pIC50 of Cc1cc(C#N)cc(C)c1Oc1nc(NC2CCN(Cc3ccc(S(N)(=O)=O)cc3Cl)CC2)ncc1Br : 7.05

pIC50 in this record for Cc1cc(C#N)cc(C)c1Oc1nc(NC2CCN(Cc3cccc(C#N)c3)CC2)ncc1Br : 7.64

According to the records, this compound Cc1cc(C#N)cc(C)c1Oc1nc(NC2CCN(Cc3cccc(Cl)c3)CC2)ncc1Br displays pIC50 of 6.62

* * *

pIC50 values recorded for Human immunodeficiency virus type 1 reverse transcriptase (Human immunodeficiency virus 1)
Reminder that pIC50 is minus the log10 of a molar concentration.

Given item Cc1cc(C#N)cc(C)c1Oc1nc(NC2CCN(c3ccccc3)CC2)ncc1Br , the value recorded as its pIC50 is 6.72

Documented pIC50 of Cc1cc(C#N)cc(C)c1Oc1nc(NC2CCN(Cc3ccccc3C#N)CC2)ncc1Br : 7.54

Measured pIC50 of Cc1cc(C#N)cc(C)c1Oc1nc(NC2CCN(Cc3ccccc3)CC2)ncc1Br : 7.72

// Cc1cc(C#N)cc(C)c1Oc1ccnc(NC2CCN(Cc3ccc(S(C)(=O)=O)cc3)CC2)n1 : pIC50 value = 7.47

Entry Cc1cc(C#N)cc(C)c1Oc1ccnc(NC2CCN(Cc3ccc(S(C)(=O)=O)cc3Cl)CC2)n1 — recorded pIC50 = 7.66

Documented pIC50 of Cc1cc(C#N)cc(C)c1Oc1nc(NC2CCN(Cc3ccc(S(C)(=O)=O)cc3)CC2)ncc1Br : 7.55

Cc1cc(C#N)cc(C)c1Oc1nc(NC2CCN(Cc3ccc(C#N)cc3Cl)CC2)ncc1Br has a reported pIC50 of 6.84

Lab note: measured pIC50 of Cc1cc(C#N)cc(C)c1Oc1ccnc(NC2CCN(Cc3ccc(S(N)(=O)=O)cc3Cl)CC2)n1 was 7.08

# pIC50 of Cc1cc(C#N)cc(C)c1Oc1nc(NC2CCN(Cc3ccc(S(C)(=O)=O)cc3Cl)CC2)ncc1Br = 7.35

Reported pIC50 for Cc1cc(C#N)cc(C)c1Oc1ccnc(NCCC(=O)Nc2ccc(S(N)(=O)=O)cc2Cl)n1 was 6.05

* * *

SUBJECT_OF_TEST: Human immunodeficiency virus type 1 reverse transcriptase (Human immunodeficiency virus 1, UniProt Q72547, K103N/Y181C)
METHOD: Inhibition of HIV1 reverse transcriptase K103N/Y181C double mutant by SPA heteropolymeric assay
MEASURED_PARAMETER: log10 IC50 (log10 of the value in nM)
Form field - Quantity: IC50; Unit: nM; Scale: log10

The compound Cc1cc(C#N)cc(C)c1Oc1nc(NC2CCN(Cc3ccc(S(C)(=O)=O)cc3)CC2)ncc1Br showed log10 IC50 equal to 1.15

log10 IC50 for Cc1cc(C#N)cc(C)c1Oc1ccnc(NC2CCN(Cc3ccccc3)CC2)n1 is 2.33

The reported log10 IC50 of the compound Cc1cc(C#N)cc(C)c1Oc1nc(NC2CCN(Cc3cccc(C#N)c3)CC2)ncc1Br was 1.43

Short answer for Cc1cc(C#N)cc(C)c1Oc1ccnc(NC2CCN(Cc3ccc(S(C)(=O)=O)cc3Cl)CC2)n1 : log10 IC50 was 1.48

log10 IC50 recorded for this compound, Cc1cc(C#N)cc(C)c1Oc1nc(NC2CCN(Cc3ccccc3C#N)CC2)ncc1Br , is 1.79

log10 IC50 recorded for this compound, Cc1cc(C#N)cc(C)c1Oc1nc(NC2CCN(Cc3ccc(Cl)cc3)CC2)ncc1Br , is 2.11

According to the records, this compound Cc1cc(C#N)cc(C)c1Oc1nc(NC2CCN(Cc3ccc(C(=O)O)cc3Cl)CC2)ncc1Br displays log10 IC50 of 1.45

Value of measured log10 IC50 for the entry Cc1cc(C#N)cc(C)c1Oc1nc(NC2CCN(Cc3ccccc3)CC2)ncc1Br : 1.18

* * *

Record form. Attribute: IC50. Fill in for each entry.
SUBJECT_OF_TEST: Human immunodeficiency virus type 1 reverse transcriptase (Human immunodeficiency virus 1, UniProt Q72547, Y188L)
METHOD: Inhibition of HIV1 reverse transcriptase Y188L mutant by SPA heteropolymeric assay
Unit nM implied. Number only.

Entry under test: Cc1cc(C#N)cc(C)c1Oc1ccnc(NC2CCN(Cc3ccc(S(C)(=O)=O)cc3)CC2)n1 . Its IC50 was 72

IC50 for Cc1cc(C#N)cc(C)c1Oc1nc(NC2CCN(Cc3ccccc3)CC2)ncc1Br is 70

Form: compound = Cc1cc(C#N)cc(C)c1Oc1ccnc(NC2CCN(Cc3ccc(S(N)(=O)=O)cc3Cl)CC2)n1 ; IC50 = 105

Record Cc1cc(C#N)cc(C)c1Oc1nc(NC2CCN(Cc3ccc(C(=O)O)cc3Cl)CC2)ncc1Br , field IC50: 86
